# testedTarget: Virion infectivity factor (Human immunodeficiency virus type 1 group M subtype B (isolate BH10)) + Virion infectivity factor (Human immunodeficiency virus type 1 group M subtype B (isolate BRU/LAI)) + Virion infectivity factor (Human immunodeficiency virus type 1 group M subtype B (isolate PCV12)) + Virion infectivity factor (Human immunodeficiency virus type 1 group M subtype B (isolate HXB2)) + DNA dC->dU-editing enzyme APOBEC-3G (Homo sapiens) (UniProt P69720+P69721+P69722+P69723+Q9HC16)
# assay: inhibitors of Vif binding to APOBEC3G peptide, primary screen, biochemical, TR-FRET, GST-Vif 1-94, biotin-A3G peptide, dose response retest (AID 1117319);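 also: Vif residues 1-94 fused to GST binding biotinylated APOBEC3G peptide 110-148; 0% = full assay without inhibitor and 100% = GST in place of GST-Vif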
# conditionParameters: stronger effect = higher value
Hit rate of the full screen: of about 260,000 compounds, about 1,500 (0.58%) were called active. Another 5% or so got no clear call; they are omitted. The list is a sample of the results. Measured potencies and affinities stand elsewhere.
Listed next: entries and their corresponding inhibition.
Report the value in % with no unit label.

Use the examples below as a reference point.
Cc1ccc(/C=C2\SC(=S)N(Cc3ccccc3)C2=O)o1 = 29.5
CCc1ccccc1NC(=S)N(CCCN(C)C)Cc1cc2cc3c(cc2[nH]c1=O)OCO3 = -0.74
NS(=O)(=O)c1ccc(N/N=C/c2ccccc2C(=O)O)c([N+](=O)[O-])c1 = -3.72
Cc1ccc(OCC(=O)NCc2ccc3c(c2)OCO3)c([N+](=O)[O-])n1 = 8.23
C=CCN(C(=O)CCS(=O)(=O)c1cccc2nsnc12)c1ccccc1 = -10
O=[N+]([O-])c1ccc(NCCCO)c(S(=O)(=O)N2CCOCC2)c1 = -0.32
O=C(COc1ccc(Cl)cc1Cl)c1ccc[nH]1 = 19.3
CCOC(=O)Cc1ncccc1C(=O)Nc1ccc(Oc2ccccc2)cc1 = -1.5
CCc1ccc(CCC(=O)Nc2ccc(S(N)(=O)=O)cc2)o1 = 68.2
O=C1C2C3C=CC(CC3)C2C(=O)N1c1ccc(Cl)cc1 (configuration not stated) = 1.42

What value of inhibition has been reported for the following compound? "C=CCNc1nc2c(c(=O)[nH]c(=O)n2C)n1Cc1cccc(C)c1"
-3.73

Next record, please: "Cc1ccc(N2NC(=O)/C(=C/c3ccc(-c4ccc(Cl)c(C(=O)O)c4)o3)C2=O)cc1"
0.99

Next record, please: "Cc1ccc(Cc2c(-c3ccccc3)nc3cc(C)ccn23)cc1"
-4.74

Next record, please: "O=C1/C(=C/c2cccnc2)SC(=S)N1c1ccccc1"
8.11

Next record, please: CC(O)CNc1ccc([N+](=O)[O-])cc1S(=O)(=O)N1CCOCC1 (configuration not stated)
6.02

Next record, please: "COc1cc(/C=N/NC(=O)CNc2n[nH]c(=O)[nH]c2=O)ccc1OCc1ccccc1"
2.21

Next record, please: "CCN(c1ccccc1)S(=O)(=O)c1ccc(Oc2ccccc2)c(N)c1"
2.08

Next record, please: CN1CCc2ccccc2C1C1CCNCC1 (configuration not stated)
25.2

Next record, please: "O=C1/C(=C/c2cccs2)SC(=S)N1c1ccccc1"
-6.53
